- Measured on: GCGR (Homo sapiens, UniProt P47871)
- Sequence (P47871 26-477, species assumed): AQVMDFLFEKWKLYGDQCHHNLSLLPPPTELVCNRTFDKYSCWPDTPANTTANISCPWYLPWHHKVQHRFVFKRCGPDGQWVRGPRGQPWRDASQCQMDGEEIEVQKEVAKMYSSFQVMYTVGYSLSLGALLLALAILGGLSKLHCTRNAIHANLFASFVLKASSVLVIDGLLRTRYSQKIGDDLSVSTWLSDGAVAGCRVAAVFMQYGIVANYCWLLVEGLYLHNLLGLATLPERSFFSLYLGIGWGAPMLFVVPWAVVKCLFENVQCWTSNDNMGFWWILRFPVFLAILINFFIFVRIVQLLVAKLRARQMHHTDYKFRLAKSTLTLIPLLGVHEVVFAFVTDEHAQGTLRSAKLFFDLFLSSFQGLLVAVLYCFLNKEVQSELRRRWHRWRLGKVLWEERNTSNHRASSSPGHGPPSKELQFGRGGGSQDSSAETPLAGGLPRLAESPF
- Protocol details: I125-glucagon binding assay (competition, GCGR membrane fractions)
- Set-up: expressed in transfected cells; host or cells: CHO-K1
- Test context: competition with I125-glucagon 0.0625 nM; membrane fractions from GCGR overexpressed CHO-K1 cells
Attribute measured: log10(IC50) (log10 of the value in nM)

compound="CC(C)C(Nc1ccc(C(=O)NCCC(=O)O)cc1)c1ccc(-c2noc(-c3cccs3)n2)cc1 (stereo not shown)" measured_on="GCGR (Homo sapiens, UniProt P47871)" number=2.55
compound="CCCCC(Nc1ccc(C(=O)NCCC(=O)O)cc1)c1ccc(-c2nc3ccccc3o2)cc1 (stereo not shown)" measured_on="GCGR (Homo sapiens, UniProt P47871)" number=2.00
compound="O=C(O)CCNC(=O)c1ccc(NC(c2ccc(-c3noc(-c4ccccc4)n3)cc2)C2CCCC2)cc1 (stereo not shown)" measured_on="GCGR (Homo sapiens, UniProt P47871)" number=2.03
compound="CCCCC(Nc1ccc(C(=O)NCCC(=O)OCC)cc1)c1ccc(-c2noc(-c3ccccc3)n2)cc1 (stereo not shown)" measured_on="GCGR (Homo sapiens, UniProt P47871)" number=3.08
compound=CCCC[C@H](Nc1ccc(C(=O)NCCC(=O)OCC)cc1)c1ccc(-c2noc(-c3ccccn3)n2)cc1 measured_on="GCGR (Homo sapiens, UniProt P47871)" number=3.04
compound="COC(=O)CCNC(=O)c1ccc(NC(c2ccc(-c3nnc(-c4ccccc4)o3)cc2)C(C)C)cc1 (stereo not shown)" measured_on="GCGR (Homo sapiens, UniProt P47871)" number=3.09

Ref: patent US10882837B2
